Test: The drug is tested on Z-024 corresponding to pig gut metagenome with ENA study accession number: PRJEB37062 and ENA sample accession number: ERS12561823 for biotransformation under anaerobic condition. The drug concentrations were measured over 9 timepoints collected between 0 and 24 hours of incubation by liquid-chromatography-coupled mass spectrometry (LC–MS); note: call rule not given here
Details: 2 µM
PROPERTY_LABEL: Bacterial Biotransformation

Answered cases to consult:
CNS(=O)(=O)Cc1ccc2[nH]cc(CCN(C)C)c2c1.O=C(O)CCC(=O)O [SUMATRIPTAN SUCCINATE]    Compound NOT metabolized
CCCC1O[C@@H]2C[C@H]3[C@@H]4CCC5=CC(=O)C=C[C@]5(C)[C@H]4[C@@H](O)C[C@]3(C)[C@]2(C(=O)CO)O1 (some centres not stated) [BUDESONIDE]    Compound metabolized
COc1ccc(CCN(C)CCCC(C#N)(c2ccc(OC)c(OC)c2)C(C)C)cc1OC (configuration not stated)    Compound metabolized
COC(=O)Nc1nc2ccc(C(=O)c3ccccc3)cc2[nH]1    Compound metabolized
O=c1[nH]c2ccccc2n1C1CCN(CCCC(c2ccc(F)cc2)c2ccc(F)cc2)CC1 [PIMOZIDE]    Compound metabolized

If you can, please state the reported Bacterial Biotransformation value of CCCCC1=NC2(CCCC2)C(=O)N1Cc1ccc(-c2ccccc2-c2nnn[nH]2)cc1 .
Compound metabolized

What does the record list as Bacterial Biotransformation for Cc1ccc(S(=O)(=O)NC(=O)NN2CC3CCCC3C2)cc1 (configuration not stated) [GLICLAZIDE] ?
Compound metabolized

Which Bacterial Biotransformation reading was recorded for the molecule CN1CCOC(c2ccccc2)c2ccccc2C1 (configuration not stated) ?
Compound NOT metabolized

Tell me the measured Bacterial Biotransformation of CN1CCN(C(=O)O[C@H]2c3nccnc3C(=O)N2c2ccc(Cl)cn2)CC1 , please.
Compound NOT metabolized

Give its Bacterial Biotransformation value. Item: O=C1[C@H](CC[C@H](O)c2ccc(F)cc2)[C@@H](c2ccc(O)cc2)N1c1ccc(F)cc1
Compound NOT metabolized

Recorded Bacterial Biotransformation for CC(C)N(CCC(C(N)=O)(c1ccccc1)c1ccccn1)C(C)C.O=P(O)(O)O (configuration not stated) [DISOPYRAMIDE PHOSPHATE] , please?
Compound NOT metabolized

====

Conditions: human gut metagenome, 24 h, 2 µM
PROPERTY_LABEL: Bacterial Biotransformation

Fc1ccc([C@@H]2CCNC[C@H]2COc2ccc3c(c2)OCO3)cc1    Compound metabolized
C[C@@H]1CC[C@H]2[C@@H](C)C(=O)O[C@@H]3O[C@@]4(C)CC[C@@H]1[C@]32OO4    Compound metabolized

====

Conditions: human gut metagenome, 24 h, 2 µM
PROPERTY_LABEL: Bacterial Biotransformation

Past entries and their recorded results:
CC(CN1c2ccccc2Sc2ccccc21)N(C)C (centres undefined)    Compound NOT metabolized
CCc1nn(CCCN2CCN(c3cccc(Cl)c3)CC2)c(=O)n1CCOc1ccccc1    Compound metabolized
CCN(CC)CCOCCOC(=O)C1(c2ccccc2)CCCC1.O=C(O)CC(O)(CC(=O)O)C(=O)O [CARBETAPENTANE CITRATE]    Compound NOT metabolized
COC(=O)C1=C(C)NC(C)=C(C(=O)OC(C)C)C1c1cccc2nonc12 (centres undefined)    Compound NOT metabolized
NC(CO)(CO)CO.O=C(c1ccccc1)c1ccc2n1CCC2C(=O)O (centres undefined)    Compound metabolized
CCc1nc(N)nc(N)c1-c1ccc(Cl)cc1    Compound NOT metabolized
CN1C(=O)CCS(=O)(=O)C1c1ccc(Cl)cc1 (centres undefined)    Compound NOT metabolized
CC(C)c1c(C(=O)Nc2ccccc2)c(-c2ccccc2)c(-c2ccc(F)cc2)n1CC[C@@H](O)C[C@@H](O)CC(=O)O    Compound NOT metabolized

Query (compound): COc1c2occc2cc2ccc(=O)oc12 ; field requested: Bacterial Biotransformation
Compound metabolized

====

Assay: The drug is tested on Z-005 corresponding to metagenome with ENA study accession number: PRJEB37062 and ENA sample accession number: ERS12561805 for biotransformation under anaerobic condition. The drug concentrations were measured over 9 timepoints collected between 0 and 24 hours of incubation by liquid-chromatography-coupled mass spectrometry (LC–MS)
Conditions: 2 µM
PROPERTY_LABEL: Bacterial Biotransformation

Worked cases, Bacterial Biotransformation given:
CCN(CC)CCNC(=O)c1cc(Cl)c(N)cc1OC [METOCLOPRAMIDE]    Compound NOT metabolized
Cc1ccc(-c2cc(C(F)(F)F)nn2-c2ccc(S(N)(=O)=O)cc2)cc1    Compound NOT metabolized
CC(C)(C)NC[C@H](O)COc1ccccc1C1CCCC1.CC(C)(C)NC[C@H](O)COc1ccccc1C1CCCC1.O=S(=O)(O)O [PENBUTOLOL SULFATE]    Compound metabolized
CCN1CCCC1CNC(=O)c1cc(S(N)(=O)=O)ccc1OC (stereo not given) [SULPIRIDE]    Compound NOT metabolized

Now take the following compound into account.
Given CCN(CC)C(C)CN1c2ccccc2Sc2ccccc21 (stereo not given) , state its recorded Bacterial Biotransformation.
Compound metabolized

====

Assay: The drug is tested on Z-023 corresponding to metagenome with ENA study accession number: PRJEB37062 and ENA sample accession number: ERS12561822 for biotransformation under anaerobic condition. The drug concentrations were measured over 9 timepoints collected between 0 and 24 hours of incubation by liquid-chromatography-coupled mass spectrometry (LC–MS)
Conditions: 2 µM
PROPERTY_LABEL: Bacterial Biotransformation

Previously resolved entries follow.
COc1ccc(CCN(C)CCCC(C#N)(c2ccc(OC)c(OC)c2)C(C)C)cc1OC (centres undefined)    Compound metabolized
CCCc1nc(C(C)(C)O)c(C(=O)OCc2oc(=O)oc2C)n1Cc1ccc(-c2ccccc2-c2nnn[nH]2)cc1    Compound metabolized
C=CCc1ccccc1OCC(O)CNC(C)C (centres undefined)    Compound metabolized
Cc1cc2c(cc1S(N)(=O)=O)S(=O)(=O)CCC2    Compound NOT metabolized
O=c1[nH]c2ccccc2n1C1CCN(CCCC(c2ccc(F)cc2)c2ccc(F)cc2)CC1 [PIMOZIDE]    Compound NOT metabolized
CCN(CC)CCNC(=O)c1cc(Cl)c(N)cc1OC [METOCLOPRAMIDE]    Compound NOT metabolized
Clc1ccc(Cn2c(CN3CCCC3)nc3ccccc32)cc1    Compound metabolized
Br.CN(C)CCCC1(c2ccc(F)cc2)OCc2cc(C#N)ccc21 (centres undefined) [CITALOPRAM HYDROBROMIDE]    Compound NOT metabolized

Item CCN(CC)CCNC(C(=O)OCCC(C)C)c1ccccc1.Cl.Cl (centres undefined) has what recorded Bacterial Biotransformation?
Compound NOT metabolized

====

Conditions: human gut metagenome, 24 h, 2 µM
PROPERTY_LABEL: Bacterial Biotransformation

Here is how some compounds turned out for Bacterial Biotransformation.
CN1C(=O)CCS(=O)(=O)C1c1ccc(Cl)cc1 (centres undefined) [CHLORMEZANONE]    Compound NOT metabolized
NS(=O)(=O)c1cc2c(cc1Cl)N=C(CSCc1ccccc1)NS2(=O)=O [BENZTHIAZIDE]    Compound NOT metabolized
Nc1c2c(nc3ccccc13)CCCC2 [TACRINE]    Compound metabolized
CCN(CC)CC#CCOC(=O)C(O)(c1ccccc1)C1CCCCC1.Cl (centres undefined) [OXYBUTYNIN CHLORIDE]    Compound metabolized
O=c1[nH]c2ccccc2n1CCCN1CCC(n2c(=O)[nH]c3cc(Cl)ccc32)CC1 [DOMPERIDONE]    Compound NOT metabolized
COc1ccc2[nH]c([S+]([O-])Cc3ncc(C)c(OC)c3C)nc2c1 (centres undefined) [OMEPRAZOLE]    Compound metabolized

I am curious: what Bacterial Biotransformation value has been reported for CN1CCOC(c2ccccc2)c2ccccc2C1 (centres undefined) [NEFOPAM] ?
Compound NOT metabolized

Suppose we examine the compound Clc1ccc(Cn2c(CN3CCCC3)nc3ccccc32)cc1 [CLEMIZOLE] ; what Bacterial Biotransformation value has been reported?
Compound metabolized

What does the data say about its Bacterial Biotransformation? Entry: CCN(CC)CCNC(=O)c1cc(Cl)c(N)cc1OC [METOCLOPRAMIDE]
Compound NOT metabolized

====

Assay: The drug is tested on WLS-039 corresponding to human gut metagenome with ENA study accession number: PRJEB37062 and ENA sample accession number: ERS12561746 for biotransformation under anaerobic condition. The drug concentrations were measured over 9 timepoints collected between 0 and 24 hours of incubation by liquid-chromatography-coupled mass spectrometry (LC–MS)
Settings: 2 µM
PROPERTY_LABEL: Bacterial Biotransformation

// known answers, use as guide
CCN(CC)CCNC(=O)c1cc(Cl)c(N)cc1OC [METOCLOPRAMIDE]    Compound NOT metabolized
O=C(NCc1ccccc1)OCCO [BURAMATE]    Compound NOT metabolized
O=C(Nc1ccccc1)OCC(CN1CCCCC1)OC(=O)Nc1ccccc1 (stereo not given)    Compound NOT metabolized
Cc1nc2n(c(=O)c1CCN1CCC(c3noc4cc(F)ccc34)CC1)CCCC2O (stereo not given)    Compound metabolized

Attention now turns to another entry.
Which value of Bacterial Biotransformation has been reported for CC(CN1c2ccccc2Sc2ccccc21)N(C)C (stereo not given) in the records?
Compound metabolized
